Target: DNA
Assay: Inhibition of calf thymus DNA/ethidium bromide complex formation.
parameter: EC50

1) Cc1cc(-c2c(F)cc3c4nn(C5CCOCC5)c(=O)c-4cn(C4CC4)c3c2F)cc(C)n1 :: > 50 µM
2) Cc1cc(-c2c(F)cc3c4nn([C@H]5CC[C@H](N(C)C)CC5)c(=O)c-4cn(C4CC4)c3c2F)cc(C)n1 :: > 50 µM
3) Cc1cc(-c2c(F)cc3c4nn(CCO)c(=O)c-4cn(C4CC4)c3c2F)cc(C)n1 :: > 60 µM
4) Cc1cc(-c2c(F)cc3c4nn(C)c(=O)c-4cn(C4CC4)c3c2F)cc(C)n1 :: > 60 µM
5) Cc1cc(-c2c(F)cc3c4nn(C5CCN(C)CC5)c(=O)c-4cn(C4CC4)c3c2F)cc(C)n1 :: > 50 µM
6) Cc1cc(-c2c(F)cc3c4n[nH]c(=O)c-4cn(C4CC4)c3c2F)cc(C)n1 :: 27 µM

Measured values drawn from BindingDB's records for doi:10.1016/0960-894X(95)00044-T for this set.
